MEASURED TARGET: human ether-à-go-go-related gene (hERG) potassium channel (human, UniProt Q12809);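 note: peak tail current of the secondary pulse compared with the same well before compound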
Sequence (Q12809 whole entry, looked up): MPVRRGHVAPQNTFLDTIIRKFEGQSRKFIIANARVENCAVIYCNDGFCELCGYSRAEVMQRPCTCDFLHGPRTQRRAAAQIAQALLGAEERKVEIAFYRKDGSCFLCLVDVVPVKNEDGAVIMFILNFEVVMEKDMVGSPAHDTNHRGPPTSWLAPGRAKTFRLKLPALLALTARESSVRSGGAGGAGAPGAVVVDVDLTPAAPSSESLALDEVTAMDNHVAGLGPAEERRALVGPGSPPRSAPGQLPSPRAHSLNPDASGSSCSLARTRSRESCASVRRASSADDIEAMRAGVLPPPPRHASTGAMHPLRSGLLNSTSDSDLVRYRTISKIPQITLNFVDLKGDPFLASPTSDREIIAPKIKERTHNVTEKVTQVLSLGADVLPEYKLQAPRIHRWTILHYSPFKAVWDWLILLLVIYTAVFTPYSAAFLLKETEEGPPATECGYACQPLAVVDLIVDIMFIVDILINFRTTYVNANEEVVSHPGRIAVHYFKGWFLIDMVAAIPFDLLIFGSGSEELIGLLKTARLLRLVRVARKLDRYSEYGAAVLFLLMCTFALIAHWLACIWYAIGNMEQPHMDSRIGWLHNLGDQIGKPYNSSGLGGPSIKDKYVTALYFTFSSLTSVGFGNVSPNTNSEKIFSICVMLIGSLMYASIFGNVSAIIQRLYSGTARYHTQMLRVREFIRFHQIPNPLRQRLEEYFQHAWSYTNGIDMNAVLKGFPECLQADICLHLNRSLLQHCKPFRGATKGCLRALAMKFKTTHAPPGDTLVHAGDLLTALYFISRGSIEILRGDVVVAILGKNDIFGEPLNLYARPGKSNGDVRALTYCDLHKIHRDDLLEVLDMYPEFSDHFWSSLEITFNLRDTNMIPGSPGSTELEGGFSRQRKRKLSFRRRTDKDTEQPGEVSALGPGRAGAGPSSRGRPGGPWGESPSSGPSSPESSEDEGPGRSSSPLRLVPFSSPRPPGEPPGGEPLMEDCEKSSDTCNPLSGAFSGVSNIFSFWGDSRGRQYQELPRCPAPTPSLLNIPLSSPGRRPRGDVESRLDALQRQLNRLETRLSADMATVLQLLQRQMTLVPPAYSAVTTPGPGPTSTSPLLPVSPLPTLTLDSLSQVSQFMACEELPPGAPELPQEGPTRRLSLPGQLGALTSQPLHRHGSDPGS
PROTOCOL DETAILS: primary screen, population patch clamp on CHO cells stably expressing hERG; higher = less effect of the substance
Among all 310,000 compounds or so, about 14,000 (4.5%) showed an effect of 50% or more. The effect is printed as a negative number. The list comes from a sample in which strong results are over-represented; it also holds close analogues and randomly drawn compounds.
OUTCOME MEASURE: hERG current change (%, negative = inhibition) at 10uM (%)
Answers are plain numbers, in %.

>>> result_number("COc1ccc(C(=O)N2CCN(C3CCCCC3)CC2)cc1OC.O=C(O)C(=O)O")
-73.6

Hey, can you go through the list below and give me hERG current change (%, negative = inhibition) at 10uM for every item?
1. Cc1csc(NC(=O)CSc2ccc(-c3ccccn3)nn2)n1
2. O=C(COc1ccccc1)Nc1nc2c(s1)CCCC2
3. COc1ccc(C(=O)N2CCN(C3CCN(Cc4ccccc4)CC3)CC2)cc1OC
4. O=C(c1ccc(N2CCCC2=O)cc1)N1CCN(c2ccccc2Cl)CC1
5. Cc1csc(SCC(=O)Nc2nc(-c3ccccc3)cs2)n1
6. Cn1c(SCC(=O)NNC(=O)Cc2ccccc2)nc2ccccc2c1=O
7. COc1cc(OC)cc(C(=O)N2CCN(C3CCCCC3)CC2)c1.O=C(O)C(=O)O

-73.6
-20.3
-42.8
-12.1
-8.35
11.7
-23.4

Hello, I would appreciate it if you could give hERG current change (%, negative = inhibition) at 10uM for each entry below.
1. CN1CCC(=NNC(=O)CN(c2ccc(Oc3ccccc3)cc2)S(C)(=O)=O)CC1
2. Cc1ccc(N2CC(C(=O)OCC(=O)C(C)(C)C)CC2=O)cc1 (stereo not drawn)
3. O=C(CSc1ccc2nnc(-c3ccccn3)n2n1)Nc1nccs1
4. Cc1nnc(NC(=O)CSc2ccc(-c3ccccn3)nn2)s1

1. 9.51
2. -4.69
3. -27.6
4. 12.1
